Ref: ChEMBL document CHEMBL2021836

Target: UniProt Q9NYK1
Sequence (Q9NYK1 whole entry): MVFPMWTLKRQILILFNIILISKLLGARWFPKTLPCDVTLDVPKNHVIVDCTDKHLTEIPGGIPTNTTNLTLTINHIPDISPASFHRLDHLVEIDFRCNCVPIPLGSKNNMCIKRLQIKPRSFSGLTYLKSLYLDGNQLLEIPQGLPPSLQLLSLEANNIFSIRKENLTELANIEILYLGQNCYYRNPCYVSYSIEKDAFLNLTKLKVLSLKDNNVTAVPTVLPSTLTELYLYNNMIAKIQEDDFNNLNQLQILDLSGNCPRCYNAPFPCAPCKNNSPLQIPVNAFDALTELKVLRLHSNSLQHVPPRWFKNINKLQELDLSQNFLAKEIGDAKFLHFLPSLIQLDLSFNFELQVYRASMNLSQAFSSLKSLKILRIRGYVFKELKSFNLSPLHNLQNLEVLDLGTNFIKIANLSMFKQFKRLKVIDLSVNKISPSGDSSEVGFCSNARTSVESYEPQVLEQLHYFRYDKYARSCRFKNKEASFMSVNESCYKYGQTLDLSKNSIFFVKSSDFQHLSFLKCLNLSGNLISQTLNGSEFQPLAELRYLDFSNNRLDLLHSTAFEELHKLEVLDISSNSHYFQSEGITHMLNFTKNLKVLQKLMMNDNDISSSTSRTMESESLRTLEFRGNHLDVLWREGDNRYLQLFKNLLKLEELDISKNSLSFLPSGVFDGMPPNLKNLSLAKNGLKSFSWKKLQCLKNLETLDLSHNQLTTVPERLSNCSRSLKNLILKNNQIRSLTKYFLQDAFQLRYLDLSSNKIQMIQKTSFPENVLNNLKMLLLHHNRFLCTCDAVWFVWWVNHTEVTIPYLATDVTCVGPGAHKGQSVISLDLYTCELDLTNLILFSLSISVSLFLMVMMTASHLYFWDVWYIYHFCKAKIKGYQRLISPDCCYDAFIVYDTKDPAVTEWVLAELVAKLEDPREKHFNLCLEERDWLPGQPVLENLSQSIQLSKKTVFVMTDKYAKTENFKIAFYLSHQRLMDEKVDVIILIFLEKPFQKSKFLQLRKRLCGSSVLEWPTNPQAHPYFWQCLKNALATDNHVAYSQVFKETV
Experiment: Agonist activity at human TLR7 expressed in human PBMCs assessed as reduction in HCV replicon level after 48 hrs by Bright Glo luciferase reporter gene assay
Assay type: functional
endpoint-name: Activity (nM)

[
  {
    "chemical-structure": "COc1ccc(Cn2c(=O)[nH]c3c(N)nc(C(F)(F)F)cc32)cn1",
    "endpoint-name": "Activity",
    "assay-value": 74
  },
  {
    "chemical-structure": "CCc1coc(-c2cc3c([nH]c(=O)n3Cc3ccc(C)nc3)c(N)n2)n1",
    "endpoint-name": "Activity",
    "assay-value": 116
  },
  {
    "chemical-structure": "Nc1nc(C(F)(F)F)cc2c1[nH]c(=O)n2Cc1ccc(N2CCOCC2)nc1",
    "endpoint-name": "Activity",
    "assay-value": 32
  }
]

A. Nc1nc(C(F)(F)F)cc2c1[nH]c(=O)n2Cc1ccc(C(F)(F)F)nc1
B. Nc1ccc(Cn2c(=O)[nH]c3c(N)nc(C(F)(F)F)cc32)cn1
C. Nc1nc(C(F)(F)F)cc2c1[nH]c(=O)n2Cc1ccc(NCC2CC2)nc1
Rank descending by Activity. Your task in answering is to list the labels in the requested order.
C, A, B
